Reference source for all entries: patent US7786152B2

Biological target: Human 11βHSD1 (Homo sapiens, UniProt P28845)
Construct: the enzyme source, native hepatic enzyme compared to recombinant enzyme; tissue XenoTech H0610/Lot 0210078; host or cells: human hepatic microsomes
Sequence (P28845 whole entry): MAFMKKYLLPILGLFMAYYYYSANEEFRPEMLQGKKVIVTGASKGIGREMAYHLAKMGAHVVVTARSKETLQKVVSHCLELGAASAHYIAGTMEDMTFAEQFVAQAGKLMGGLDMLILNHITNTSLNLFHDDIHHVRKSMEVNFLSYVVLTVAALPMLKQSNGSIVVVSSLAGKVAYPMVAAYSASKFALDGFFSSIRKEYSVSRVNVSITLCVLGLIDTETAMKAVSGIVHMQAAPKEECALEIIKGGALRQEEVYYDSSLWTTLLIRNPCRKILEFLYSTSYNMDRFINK
Test: 11β HSD1 cortisol radioimmunoassay (RIA) with human hepatic microsomes
Type: biochemical
Conditions: read-out: % inhibition of Human 11βHSD1 @ 10 μM
Would you mind labelling by inhibition at 10 µM? At or over 50% is y, under is n.

Consider the worked cases shown below.
Cc1nc2cc(NS(=O)(=O)c3ccc(-c4ccccc4)cc3)ccc2s1 [compound 521] | y
Cc1c(Cl)cccc1S(=O)(=O)N(C)c1ccc2c(c1)sc(=O)n2C [compound 831] | n
Cc1[nH]c2ccc(NS(=O)(=O)c3cc(Cl)ccc3Cl)cc2c1C [compound 1019] | y
CCOC(=O)Cn1c(C)nc2cc(NS(=O)(=O)c3cccc(Cl)c3C)ccc21 [compound 978] | y
COc1cc(C)ccc1S(=O)(=O)Nc1ccc2sc(C)nc2c1 [compound 584] | n
Cc1nc2c(NS(=O)(=O)c3cccc(Cl)c3C)c(C)ccc2s1 [compound 996] | y
CCN(c1ccc2sc(C)nc2c1)S(=O)(=O)c1cccc(Cl)c1C [compound 470] | y
CCCc1ccc(S(=O)(=O)Nc2ccc3sc(C)nc3c2)cc1 [compound 421] | n

Would you kindly look at the next entry?
Check if inhibition at 10 µM >= 50% (inclusive). Item: Cc1nc2cc(NS(=O)(=O)c3c(Cl)cc(Cl)cc3Cl)ccc2s1 [compound 522]
n
